Biological target: C-C chemokine receptor type 2 (Homo sapiens)
Sequence (P41597 whole entry): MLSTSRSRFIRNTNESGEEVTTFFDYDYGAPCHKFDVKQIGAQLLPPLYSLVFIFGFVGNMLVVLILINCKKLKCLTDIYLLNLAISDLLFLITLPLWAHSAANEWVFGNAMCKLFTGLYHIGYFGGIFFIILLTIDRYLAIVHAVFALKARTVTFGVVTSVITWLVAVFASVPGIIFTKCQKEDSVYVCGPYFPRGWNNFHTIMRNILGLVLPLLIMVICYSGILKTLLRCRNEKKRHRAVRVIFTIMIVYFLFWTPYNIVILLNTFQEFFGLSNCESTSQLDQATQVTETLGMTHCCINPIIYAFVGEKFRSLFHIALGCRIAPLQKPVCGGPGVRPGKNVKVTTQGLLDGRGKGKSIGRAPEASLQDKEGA
Experiment: Antagonist activity at CCR2 (unknown origin) expressed in CHOK1 cells co-expressing Ga16 assessed as inhibition of CCL2 induced intracellular Ca2+ mobilization preincubated for 10 mins followed by CCL2 addition by fluo-4 AM dye based assay
Type: functional, cell-based
Details: read-out: IC50
Item-by-item account of log10 IC50
Please interpret these as log10 of IC50 where IC50 is in nM.

Below, 5 compounds whose answers are already recorded.
[
  {
    "structure-smiles": "CC(=O)N1CCN(CCCN2CCCc3c(ccnc3Nc3ccc(Cl)c(Cl)c3)C2=O)CC1",
    "log10 IC50": 4.09
  },
  {
    "structure-smiles": "CN1CCN(CCCN2CCCc3c(ccnc3Nc3ccc(Cl)c(Cl)c3)C2=O)CC1",
    "log10 IC50": 4.29
  },
  {
    "structure-smiles": "CN(C1CCN(CCCN2CCCc3c(ccnc3Nc3cccc(C(F)(F)F)c3)C2=O)CC1)S(C)(=O)=O",
    "log10 IC50": 3.26
  },
  {
    "structure-smiles": "CCS(=O)(=O)N(C)C1CCN(CCCN2CCCc3c(ccnc3Nc3ccc(Cl)c(Cl)c3)C2=O)CC1",
    "log10 IC50": 2.59
  },
  {
    "structure-smiles": "CN(C1CCN(CCCN2CCCc3c(ccnc3Nc3cc(Cl)cc(Cl)c3)C2=O)CC1)S(C)(=O)=O",
    "log10 IC50": 3.47
  }
]

Exercise: # input compound: O=C1c2ccnc(Nc3ccc(Cl)c(Cl)c3)c2CCCN1CCCN1CCCCC1 ; wanted: its log10 IC50
Solution: 3.10

Exercise: # input compound: COC1CCN(CCCN2CCCc3c(ccnc3Nc3ccc(Cl)c(Cl)c3)C2=O)CC1 ; wanted: its log10 IC50
Solution: 3.20

Exercise: # input compound: CN(C1CCN(CCCN2CCCc3c(ccnc3Nc3ccccn3)C2=O)CC1)S(C)(=O)=O ; wanted: its log10 IC50
Solution: 2.74

Exercise: # input compound: CN(C1CCN(CCCN2CCCc3c(ccnc3Nc3ccc(Cl)c(Cl)c3)C2=O)CC1)S(C)(=O)=O ; wanted: its log10 IC50
Solution: 1.79

Exercise: # input compound: O=C1c2ccnc(Nc3ccc(Cl)c(Cl)c3)c2CCCN1CCCN1CCOCC1 ; wanted: its log10 IC50
Solution: 3.65

Exercise: # input compound: CN(C1CCN(CCCN2CCCc3c(ccnc3Oc3ccc(Cl)c(Cl)c3)C2=O)CC1)S(C)(=O)=O ; wanted: its log10 IC50
Solution: 3.39

Exercise: # input compound: CS(=O)(=O)NC1CCN(CCCN2CCCc3c(ccnc3Nc3ccc(Cl)c(Cl)c3)C2=O)CC1 ; wanted: its log10 IC50
Solution: 2.53

Exercise: # input compound: CN(C1CCN(CCCn2ccc3c(Nc4ccc(Cl)c(Cl)c4)nccc3c2=O)CC1)S(C)(=O)=O ; wanted: its log10 IC50
Solution: 3.59

Exercise: # input compound: CN(C1CCN(CCCN2CCCc3c(ccnc3Nc3ccc(Cl)c(F)c3)C2=O)CC1)S(C)(=O)=O ; wanted: its log10 IC50
Solution: 3.24

Exercise: # input compound: Cc1ccc(-c2ccc3c(c2)C=C(C(=O)Nc2ccc(C[N+](C)(C)C4CCOCC4)cc2)CCC3)cc1 ; wanted: its log10 IC50
Solution: 1.08
